Tested on: ICS
ASSAY_PROTOCOL: qHTS profiling for inhibitors of Plasmodium falciparum proliferation (AID 504749); further: nearly all actives have a fitted effect of over 60% in size
COND: P. falciparum in erythrocytes, SYBR Green DNA, 72 h; series mostly up to 28.7 µM
Results filed as inconclusive are left out. Active and inactive are the calls of the source. The call rests on the fitted dose curve; in most records, active means well fitted inhibition curve with a large enough effect; inconclusive means small, poorly fitted or top-dose-only effect; inactive means flat fitted curve, though single readings scatter.
Outcomes: class 1 = active, class 0 = inactive

{"SMILES_DATA": "CC(=O)O[C@]1(C(C)=O)CC[C@H]2[C@@H]3C=C(Cl)C4=CC(=O)CC[C@]4(C)[C@H]3CC[C@@]21C", "ASSAY_SYSTEM": "ICS", "LABEL": "class 1"}
{"SMILES_DATA": "O=C(O)CCC(=O)Nc1ccc(S(=O)(=O)Nc2nccs2)cc1", "ASSAY_SYSTEM": "ICS", "LABEL": "class 0"}
{"SMILES_DATA": "CC1=C(C(=O)O)N2C(=O)[C@@H](NC(=O)[C@H](N)c3ccccc3)[C@H]2SC1", "ASSAY_SYSTEM": "ICS", "LABEL": "class 0"}
{"SMILES_DATA": "CN(CCCN1c2ccccc2CCc2ccccc21)CC(=O)c1ccc(Cl)cc1", "ASSAY_SYSTEM": "ICS", "LABEL": "class 1"}
{"SMILES_DATA": "N/C(=N\\N=C\\c1ccc(Cl)cc1)N/N=C/c1ccc(Cl)cc1", "ASSAY_SYSTEM": "ICS", "LABEL": "class 1"}
